Kindly supply the reported self-splicing fitness (ln) values for the records listed here.
test-summary: self-splicing fitness, log relative to wild type (ln ratio); higher = more splicing; Tetrahymena group I intron in knt gene, E. coli kanamycin selection, DiMSum; sequences stand for … in CUCUCU…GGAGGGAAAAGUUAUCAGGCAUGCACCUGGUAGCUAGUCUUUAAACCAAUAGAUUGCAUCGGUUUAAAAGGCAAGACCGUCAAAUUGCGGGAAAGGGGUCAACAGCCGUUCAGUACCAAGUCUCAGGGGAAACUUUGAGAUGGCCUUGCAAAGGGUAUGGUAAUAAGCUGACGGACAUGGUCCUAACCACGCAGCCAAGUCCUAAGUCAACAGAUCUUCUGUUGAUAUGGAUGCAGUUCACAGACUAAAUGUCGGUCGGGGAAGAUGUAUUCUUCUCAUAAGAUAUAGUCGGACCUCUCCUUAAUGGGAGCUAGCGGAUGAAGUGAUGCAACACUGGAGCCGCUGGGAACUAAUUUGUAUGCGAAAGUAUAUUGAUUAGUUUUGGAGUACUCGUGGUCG;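 also: selection with 25 µg/mL kanamycin versus none on LB agar overnight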
study-conditions: 30 °C

// lookup self-splicing fitness (ln) for UGACAGCAAUAUUACGUAAU -2.19

// lookup self-splicing fitness (ln) for GACAAGCAAUAUUACGGGGG -3.58

// lookup self-splicing fitness (ln) for GGUUAGCAAUAUUACGUGAA -0.107

// lookup self-splicing fitness (ln) for UCGCAGCAAUAUUACGGCGG -3.41

// lookup self-splicing fitness (ln) for CUAGAGCAAUAUUACGAAAC -3.57

// lookup self-splicing fitness (ln) for UAGAAGCAAUAUUACGGUCC -1.92

// lookup self-splicing fitness (ln) for GAUGAGCAAUAUUACGAGUA -3.4

// lookup self-splicing fitness (ln) for UGUAAGCAAUAUUACGUGUU -3.3

// lookup self-splicing fitness (ln) for UAUCAGCAAUAUUACGCGGC -2.77

// lookup self-splicing fitness (ln) for GCUGAGCAAUAUUACGGAAA -2.86

// lookup self-splicing fitness (ln) for GCGCAGCAAUAUUACGGAGA -4.36

// lookup self-splicing fitness (ln) for CCAUAGCAAUAUUACGAGUC -4.04

// lookup self-splicing fitness (ln) for AGGCAGCAAUAUUACGUUAG -3.85

// lookup self-splicing fitness (ln) for UGCAAGCAAUAUUACGCGGU -3.01

// lookup self-splicing fitness (ln) for ACCGAGCAAUAUUACGGCAU -1.09

// lookup self-splicing fitness (ln) for UAUCAGCAAUAUUACGACUU -0.502

// lookup self-splicing fitness (ln) for ACAAAGCAAUAUUACGCAAG -1.45

// lookup self-splicing fitness (ln) for CGGCAGCAAUAUUACGAUGU -3.85

// lookup self-splicing fitness (ln) for CUACAGCAAUAUUACGAGCC -2.24

// lookup self-splicing fitness (ln) for UAAGAGCAAUAUUACGGGAU -3.55

// lookup self-splicing fitness (ln) for GCCAAGCAAUAUUACGAGUA -3.27

// lookup self-splicing fitness (ln) for AUGCAGCAAUAUUACGCUGG -2.5

// lookup self-splicing fitness (ln) for CCAAAGCAAUAUUACGUAUG -0.512

// lookup self-splicing fitness (ln) for GAGCAGCAAUAUUACGCGCA -0.638

// lookup self-splicing fitness (ln) for UGAUAGCAAUAUUACGACAU -2.59

// lookup self-splicing fitness (ln) for CAAGAGCAAUAUUACGGGUA -3.26

// lookup self-splicing fitness (ln) for GUUCAGCAAUAUUACGGGUG -1.49

// lookup self-splicing fitness (ln) for UUAAAGCAAUAUUACGUCCC -1.51

// lookup self-splicing fitness (ln) for AUAAAGCAAUAUUACGAUGG -2.15

// lookup self-splicing fitness (ln) for GACAAGCAAUAUUACGGCAC 0.362

// lookup self-splicing fitness (ln) for GAAUAGCAAUAUUACGAUAU -1.43

// lookup self-splicing fitness (ln) for GUCUAGCAAUAUUACGUGCA -1.38

// lookup self-splicing fitness (ln) for AUGAAGCAAUAUUACGUGAU -1.24

// lookup self-splicing fitness (ln) for AAGAAGCAAUAUUACGGUGG -2.93

----------
test-summary: self-splicing fitness, log relative to wild type (ln ratio); higher = more splicing; Tetrahymena group I intron in knt gene, E. coli kanamycin selection, DiMSum; sequences stand for … in CUCUCU…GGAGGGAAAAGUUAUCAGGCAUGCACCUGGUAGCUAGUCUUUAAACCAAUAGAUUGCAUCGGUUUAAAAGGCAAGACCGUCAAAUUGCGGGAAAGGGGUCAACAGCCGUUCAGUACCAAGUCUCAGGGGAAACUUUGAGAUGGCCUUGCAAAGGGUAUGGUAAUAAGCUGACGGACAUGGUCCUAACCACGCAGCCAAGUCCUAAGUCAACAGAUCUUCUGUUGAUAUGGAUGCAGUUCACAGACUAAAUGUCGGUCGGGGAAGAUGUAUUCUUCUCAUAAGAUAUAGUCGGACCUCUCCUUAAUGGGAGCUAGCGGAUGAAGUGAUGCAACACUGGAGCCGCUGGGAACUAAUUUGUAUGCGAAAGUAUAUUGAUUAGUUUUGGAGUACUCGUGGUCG
study-conditions: 37 °C
Label true when self-splicing fitness (ln) >= -1; otherwise false.

Is the recorded value of self-splicing fitness (ln) equal to or greater than -1 for this sequence? UACUAGCAAUAUUACGAGUU true

Is the recorded value of self-splicing fitness (ln) equal to or greater than -1 for this sequence? CGCUAGCAAUAUUACGAGUU false

Is the recorded value of self-splicing fitness (ln) equal to or greater than -1 for this sequence? UCCUAGCAAUAUUACGUUGC false

Is the recorded value of self-splicing fitness (ln) equal to or greater than -1 for this sequence? AUACAGCAAUAUUACGGAAU false

Is the recorded value of self-splicing fitness (ln) equal to or greater than -1 for this sequence? GGCCAGCAAUAUUACGCCCC true

Is the recorded value of self-splicing fitness (ln) equal to or greater than -1 for this sequence? GGAUAGCAAUAUUACGGUGA false

Is the recorded value of self-splicing fitness (ln) equal to or greater than -1 for this sequence? CUCCAGCAAUAUUACGUGGA false

Is the recorded value of self-splicing fitness (ln) equal to or greater than -1 for this sequence? UGUAAGCAAUAUUACGGCUA true

Is the recorded value of self-splicing fitness (ln) equal to or greater than -1 for this sequence? AGCGAGCAAUAUUACGUCAA true

Is the recorded value of self-splicing fitness (ln) equal to or greater than -1 for this sequence? AAUUAGCAAUAUUACGUGUA false

Is the recorded value of self-splicing fitness (ln) equal to or greater than -1 for this sequence? GGGUAGCAAUAUUACGUGCG true

Is the recorded value of self-splicing fitness (ln) equal to or greater than -1 for this sequence? AGACAGCAAUAUUACGUAGG false

Is the recorded value of self-splicing fitness (ln) equal to or greater than -1 for this sequence? AUAAAGCAAUAUUACGGCCC true

Is the recorded value of self-splicing fitness (ln) equal to or greater than -1 for this sequence? AGCUAGCAAUAUUACGUGAG false

Is the recorded value of self-splicing fitness (ln) equal to or greater than -1 for this sequence? UGGCAGCAAUAUUACGCUAU false

Is the recorded value of self-splicing fitness (ln) equal to or greater than -1 for this sequence? ACAUAGCAAUAUUACGUUCA true

----------
Kindly supply the reported self-splicing fitness (ln) values for the records listed here.
test-summary: self-splicing fitness, log relative to wild type (ln ratio); higher = more splicing; Tetrahymena group I intron in knt gene, E. coli kanamycin selection, DiMSum; sequences stand for … in CUCUCU…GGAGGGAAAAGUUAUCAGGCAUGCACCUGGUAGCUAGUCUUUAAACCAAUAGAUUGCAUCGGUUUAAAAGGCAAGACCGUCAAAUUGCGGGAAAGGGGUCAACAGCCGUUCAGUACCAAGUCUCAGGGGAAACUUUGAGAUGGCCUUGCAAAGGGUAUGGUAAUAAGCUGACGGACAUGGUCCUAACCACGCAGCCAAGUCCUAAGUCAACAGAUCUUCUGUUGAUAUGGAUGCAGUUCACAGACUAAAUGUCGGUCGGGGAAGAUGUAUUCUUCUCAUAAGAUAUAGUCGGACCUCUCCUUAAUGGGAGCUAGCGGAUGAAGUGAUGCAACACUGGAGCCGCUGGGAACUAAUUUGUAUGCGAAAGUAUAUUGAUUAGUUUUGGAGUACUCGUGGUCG
study-conditions: 30 °C

// lookup self-splicing fitness (ln) for GUUCAGCAAUAUUACGGAAU -2.45

// lookup self-splicing fitness (ln) for AAUUAGCAAUAUUACGGUUC -3.38

// lookup self-splicing fitness (ln) for GGAAAGCAAUAUUACGCAAC -3.25

// lookup self-splicing fitness (ln) for UAUAAGCAAUAUUACGCCUC -2.74

// lookup self-splicing fitness (ln) for ACAGAGCAAUAUUACGGCUA -3.1

// lookup self-splicing fitness (ln) for UGUGAGCAAUAUUACGUAUC -3.75

// lookup self-splicing fitness (ln) for ACCUAGCAAUAUUACGACAC -0.951

// lookup self-splicing fitness (ln) for GUGGAGCAAUAUUACGUUGU -2.93

// lookup self-splicing fitness (ln) for AGCAAGCAAUAUUACGUCUU -1.38

// lookup self-splicing fitness (ln) for GGUAAGCAAUAUUACGCACG 0.408

// lookup self-splicing fitness (ln) for UUGGAGCAAUAUUACGAAAG -2.5

// lookup self-splicing fitness (ln) for UGAUAGCAAUAUUACGAGCG -0.553

// lookup self-splicing fitness (ln) for UAAUAGCAAUAUUACGAGAU -4.03

// lookup self-splicing fitness (ln) for UGUGAGCAAUAUUACGGUGG -2.64

// lookup self-splicing fitness (ln) for GAUGAGCAAUAUUACGAUAG -3.33

// lookup self-splicing fitness (ln) for GACGAGCAAUAUUACGCAGC -3.4
